method-summary: Plasma protein binding
Format: in vitro ADME
Structures can show the parent of a compound that is named as a salt.
quantity-kind: fraction unbound
// response body must contain only the number

Prompt: State the recorded fraction unbound for this entry: N[C@H]1C=C(C(=O)O)CC1=C(F)F [Compound 1, Hydrochloride]
Completion: 0.73

* * *

target: alanine aminotransferase (Ala-AT)
method-summary: Inhibition of alanine aminotransferase
condition-context: reversible inhibition
Counter-ions that a name gives are not always drawn.
quantity-kind: IC50

Prompt: Give its IC50 value. Item: N[C@H]1C=C(C(=O)O)CC1=C(F)F [Compound 1, Hydrochloride]
Completion: > 4 mM

Reference for the values: patent US9993449B2
